Where do these numbers come from? They come from ChEMBL document CHEMBL5214887.

Tested on: Human alphaherpesvirus 1
experiment: Antiviral activity against HSV-1 infected in African green monkey GMK-AH-1 cells assessed as viral growth inhibition incubated for 73 hrs by crystal violet staining assay
Assay type: functional, organism-based
condition: Human alphaherpesvirus 1, 73 h
endpoint name: pIC50
# pIC50 = -log10(concentration in molar units)

# lookup: Cc1nc(N2CC[N+]3(CC2)CC[N+]2(CCNCC2)CC3)c([N+](=O)[O-])c(N2CC[N+]3(CC2)CC[N+]2(CCNCC2)CC3)n1 on Human alphaherpesvirus 1, pIC50 = 5.83

====

Tested on: Human betaherpesvirus 5
experiment: Antiviral activity against ganciclovir resistant HCMV infected in human HELF cells assessed as viral growth inhibition incubated for 8 days
Format: functional, organism-based
condition: Human betaherpesvirus 5, HELF, 192 h
endpoint name: pIC50
# pIC50 = -log10(concentration in molar units)

Measured pIC50 of Cl.Cl.[O-][n+]1onc2ncnc(N3CC[N+]4(CC3)CC[N+]3(CCN(c5ncnc6no[n+]([O-])c56)CC3)CC4)c21 : 6.82

====

System: Deltapapillomavirus 4
experiment: Antiviral activity against BPV1 infected in human HEK293T cells assessed as viral growth inhibition incubated for 72 hrs by green fluorescent protein based method
Format: functional, organism-based
condition: Deltapapillomavirus 4, HEK-293T
endpoint name: pIC50
# pIC50 = -log10(concentration in molar units)

# lookup: Cl.Cl.[O-][n+]1onc2ncnc(N3CC[N+]4(CC3)CC[N+]3(CCN(c5ncnc6no[n+]([O-])c56)CC3)CC4)c21 on Deltapapillomavirus 4, pIC50 = 5.59

====

Record form. Attribute: LD50. Fill in for each entry.
experiment: Toxicity in mouse assessed as lethal dose at ip as single dose
Assay type: organism-based
condition: in vivo
Answer format reminder: number followed by unit.

Measured LD50 of OC(CCl)CN1CC[N+]2(CC1)CC[N+]1(CCN(CC(O)CCl)CC1)CC2.[Cl-].[Cl-] (configuration not stated) [PROSPIDIUM CHLORIDE] : 100 mg/kg

Measured LD50 of O=C(CCBr)N1CC[N+]2(CC1)CC[N+]1(CCN(C(=O)CCBr)CC1)CC2.[Cl-].[Cl-] [DIBROSPIDIUM CHLORIDE] : 1920 mg/kg
